Entry source: ChEMBL document CHEMBL1155783

Entries and their pKi
Target: Cannabinoid receptor 2 (Homo sapiens, UniProt P34972)
Sequence (P34972 whole entry): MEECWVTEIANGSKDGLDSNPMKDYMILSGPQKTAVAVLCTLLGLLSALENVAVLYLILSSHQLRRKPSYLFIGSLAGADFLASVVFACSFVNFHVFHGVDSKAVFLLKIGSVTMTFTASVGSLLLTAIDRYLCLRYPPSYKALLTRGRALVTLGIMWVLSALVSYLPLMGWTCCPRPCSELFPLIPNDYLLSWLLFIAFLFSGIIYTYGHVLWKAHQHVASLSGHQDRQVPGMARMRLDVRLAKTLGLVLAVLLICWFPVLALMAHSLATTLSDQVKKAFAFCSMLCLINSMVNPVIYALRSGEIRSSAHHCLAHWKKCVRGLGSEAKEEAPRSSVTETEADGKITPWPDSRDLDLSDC
Assay: Displacement of [3H]CP-55940 from human recombinant CB2 receptor expressed in HEK cells
pKi: −log10 of the molar value.

COMPOUND	TEST TARGET	QUALIFIER	pKi
O=C(Cc1ccc(Cl)cc1)NCCC(c1ccccc1)c1ccccc1	Cannabinoid receptor 2 (Homo sapiens, UniProt P34972)	=	5.62
O=C(Cc1ccc(Br)cc1)NCCC(c1ccccc1)c1ccccc1	Cannabinoid receptor 2 (Homo sapiens, UniProt P34972)	=	5.89
O=C(NCCCc1ccccc1)C(c1ccccc1)c1ccccc1	Cannabinoid receptor 2 (Homo sapiens, UniProt P34972)	<	5.10
O=C(NCCC(c1ccccc1)c1ccccc1)C(Cl)(c1ccccc1)c1ccccc1	Cannabinoid receptor 2 (Homo sapiens, UniProt P34972)	=	5.85
O=C(NCCC(c1ccccc1)c1ccccc1)C(c1ccccc1)c1ccc(Cl)cc1 (stereo unspecified)	Cannabinoid receptor 2 (Homo sapiens, UniProt P34972)	<	5.10
O=C(NCCCc1ccccc1)C(c1ccccc1)c1ccc(Br)cc1 (stereo unspecified)	Cannabinoid receptor 2 (Homo sapiens, UniProt P34972)	=	5.74
O=C(NCCC(c1ccccc1)c1ccccc1)C(c1ccccc1)c1ccc(O)cc1 (stereo unspecified)	Cannabinoid receptor 2 (Homo sapiens, UniProt P34972)	=	5.96
O=C(NCCC(c1ccccc1)c1ccccc1)C(c1ccccc1)c1ccccc1	Cannabinoid receptor 2 (Homo sapiens, UniProt P34972)	=	5.10
O=C(Cc1ccccc1)NCCC(c1ccccc1)c1ccccc1	Cannabinoid receptor 2 (Homo sapiens, UniProt P34972)	<	5.10
Cc1ccc(C(C(=O)NCCC(c2ccccc2)c2ccccc2)c2ccccc2)cc1 (stereo unspecified)	Cannabinoid receptor 2 (Homo sapiens, UniProt P34972)	=	6.19
O=C(NCCC(c1ccccc1)c1ccccc1)C(c1ccccc1)c1ccc([N+](=O)[O-])cc1 (stereo unspecified)	Cannabinoid receptor 2 (Homo sapiens, UniProt P34972)	=	6.10
